tested on: B-CPAP (Thyroid Gland Carcinoma); assay: Bliss excess, mean over the matrix (fraction); higher = more synergy;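 note: after 72 h of two-drug dosing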
Here, each record is paired with measured Bliss excess data.
measured-property: Bliss excess

molecule | assayed-target | measured
C=CCn1c(=O)c2cnc(Nc3ccc(N4CCN(C)CC4)cc3)nc2n1-c1cccc(C(C)(C)O)n1 [AZD1775] + C1CN(CCC1(C(=O)N[C@@H](CCO)C2=CC=C(C=C2)Cl)N)C3=NC=NC4=C3C=CN4 [Capivasertib] (first compound max 3 µM, partner max 3 µM) | B-CPAP (Thyroid Gland Carcinoma) | 0.0065
CN(CCO)CC[C@H](CSc1ccccc1)Nc1ccc(S(=O)(=O)NC(=O)c2ccc(N3CCC([C@@H](O)c4ccccc4-c4ccc(Cl)cc4)CC3)cc2)cc1S(=O)(=O)C(F)(F)F [AZD4320] + C[C@@H](Nc1cc(F)cc(F)c1)c1cc(C(=O)N(C)C)cc2c(=O)cc(N3CCOCC3)oc12 [AZD8186] (first compound max 1 µM, 7x7, partner max 3 µM) | B-CPAP (Thyroid Gland Carcinoma) | 0.0064
Cc1c2c(nn1C)CSCc1cc(n(C)n1)CSc1cc(c3ccccc3c1)OCCCc1c(C(=O)O)n(C)c3c-2c(Cl)ccc13 [AZD5991] + Cn1cnc2c(F)c(Nc3ccc(Br)cc3Cl)c(C(=O)NOCCO)cc21 [Selumetinib] (first compound max 1 µM, 7x7, partner max 3 µM) | B-CPAP (Thyroid Gland Carcinoma) | -0.0219

###

test system: LNCaP-Clone-FGC (Prostate Carcinoma); test: combination Emax (second highest fraction inhibited in the dose matrix, 72 h); higher = more inhibition; extreme values may be limits of the assay

compound | combination Emax
CN(CCO)CC[C@H](CSc1ccccc1)Nc1ccc(S(=O)(=O)NC(=O)c2ccc(N3CCC([C@@H](O)c4ccccc4-c4ccc(Cl)cc4)CC3)cc2)cc1S(=O)(=O)C(F)(F)F [AZD4320] + CN(C)CCCOc1ccc(-c2ccc3ncc4c(c3c2)n(C2CCOCC2)c(=O)n4C)cn1 [AZD0156] (first compound max 1 µM, 7x7, partner max 1 µM) | 0.335
CC1(C)CCC(CN2CCN(c3ccc(C(=O)NS(=O)(=O)c4ccc(NCC5CCOCC5)c([N+](=O)[O-])c4)c(Oc4cnc5[nH]ccc5c4)c3)CC2)=C(c2ccc(Cl)cc2)C1 [Venetoclax] + C[C@@H]1COCCN1C2=NC(=NC(=C2)C3(CC3)[S@](=N)(=O)C)C4=C5C=CNC5=NC=C4 [AZD6738] (first compound max 1 µM, 7x7, partner max 10 µM) | 0.684
COc1nnc2ccc(N3CCC(c4ccc(OCCN5CCN(C)C(=O)[C@H]5C)cc4)CC3)nn12 [AZD5153] + Cc1c2c(nn1C)CSCc1cc(n(C)n1)CSc1cc(c3ccccc3c1)OCCCc1c(C(=O)O)n(C)c3c-2c(Cl)ccc13 [AZD5991] (first compound max 1 µM, 7x7, partner max 1 µM) | 0.772

###

test system: MFE-296 (Endometrial Carcinoma); assay: combination Emax (second highest fraction inhibited in the dose matrix, 72 h); higher = more inhibition; extreme values may be limits of the assay
Here, each record is paired with measured combination Emax data.
measured-property: combination Emax

molecule | measured
COc1nnc2ccc(N3CCC(c4ccc(OCCN5CCN(C)C(=O)[C@H]5C)cc4)CC3)nn12 [AZD5153] + CC1(C)CCC(CN2CCN(c3ccc(C(=O)NS(=O)(=O)c4ccc(NCC5CCOCC5)c([N+](=O)[O-])c4)c(Oc4cnc5[nH]ccc5c4)c3)CC2)=C(c2ccc(Cl)cc2)C1 [Venetoclax] (first compound max 1 µM, 7x7, partner max 1 µM) | 0.27
COc1cccc(OCCCN)c1-c1cc(Nc2cnc(C#N)cn2)n[nH]1 [Prexasertib] + CCc1c2c(nc3ccc(O)cc13)-c1cc3c(c(=O)n1C2)COC(=O)[C@]3(O)CC [SN-38] (first compound max 1 µM, 7x7, partner max 0.3 µM) | 0.83
COc1cccc2c1C(=O)c1c(O)c3c(c(O)c1C2=O)C[C@@](O)(C(=O)CO)C[C@@H]3O[C@H]1C[C@H](N)[C@H](O)[C@H](C)O1 [Doxorubicin] + Cc1cc2ncnn2cc1Nc1ncc2c(n1)n(C1CCOCC1)c(=O)n2C [AZD7648] (first compound max 1 µM, 7x7, partner max 10 µM) | 0.295
